# EXPERIMENT_NOTES: Toxicity in iv dosed mouse
# Format: organism-based
# PARTICULARS: in vivo
PARAMETER: LD50

Consider the following items and state reported LD50 for each.
1. CCN1CCCC12C(=O)Nc1ccccc12 (stereo not drawn)
2. CCCN1CCC2(C1)C(=O)Nc1ccccc12 (stereo not drawn)
3. CCN1CCC2(C1)C(=O)Nc1c(C)cccc12 (stereo not drawn)
4. CN1CCCCC12C(=O)Nc1ccccc12 (stereo not drawn)
5. CCCN1CCCC2(C1)C(=O)Nc1ccccc12 (stereo not drawn)

Response given:
1. 119 mg/kg
2. 25 mg/kg
3. 23 mg/kg
4. 97 mg/kg
5. 41 mg/kg
